# experimentalSystem: Nuclear receptor subfamily 1 group I member 2 (Homo sapiens, UniProt O75469)
# Sequence (O75469 whole entry): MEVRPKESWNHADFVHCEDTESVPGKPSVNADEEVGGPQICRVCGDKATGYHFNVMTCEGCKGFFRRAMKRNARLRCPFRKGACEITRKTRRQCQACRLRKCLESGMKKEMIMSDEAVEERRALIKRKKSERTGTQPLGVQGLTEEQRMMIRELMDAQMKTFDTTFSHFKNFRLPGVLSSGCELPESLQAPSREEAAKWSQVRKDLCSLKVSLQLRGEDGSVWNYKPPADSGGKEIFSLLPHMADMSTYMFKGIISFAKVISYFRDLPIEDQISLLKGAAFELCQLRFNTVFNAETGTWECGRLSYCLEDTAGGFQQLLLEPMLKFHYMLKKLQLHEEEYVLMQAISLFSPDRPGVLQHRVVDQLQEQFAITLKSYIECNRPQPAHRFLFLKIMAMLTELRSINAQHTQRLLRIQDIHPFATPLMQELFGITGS
# assayOverview: Transactivation of human PXR transfected in human HepG2 cells co-transfected with CYP3A4-Luc plasmid incubated for overnight by luciferase reporter gene assay
// values below are reported EC50

Recorded results for 3 molecules are shown here.
{"structureSmilesString": "Cc1c([C@H](OC(C)(C)C)C(=O)O)c2n3cc(nc3c1C(C)(C)O)-c1cccc(c1)-c1cc(F)ccc1O[C@@H](C)CCCCOC1(C)CCN2CC1", "experimentalReadout": "EC50", "measured": "1.01 µM"}
{"structureSmilesString": "Cc1c([C@H](OC(C)(C)C)C(=O)O)c2n3cc(nc3c1CNCC(C)(C)O)-c1cccc(c1)-c1cc(F)ccc1O[C@@H](C)CCCCOC1(C)CCN2CC1", "experimentalReadout": "EC50", "measured": "> 50 µM"}
{"structureSmilesString": "Cc1c([C@H](OC(C)(C)C)C(=O)O)c2n3cc(nc3c1CNC(C)C)-c1cccc(c1)-c1cc(F)ccc1O[C@@H](C)CCCCOC1(C)CCN2CC1", "experimentalReadout": "EC50", "measured": "> 50 µM"}

# input for lookup
Prompt: Answer with the recorded EC50 of `Cc1c([C@H](OC(C)(C)C)C(=O)O)c2n3cc(nc3c1CN(C)C)-c1cccc(c1)-c1cc(F)ccc1O[C@@H](C)CCCCOC1(C)CCN2CC1` only.
Completion: > 50 µM
